assay: glucagon-like peptide 1 release enhancers, primary assay, NCI-H716 cell line, NPC library (AID 1117341); conditions: NCI-H716 cells, at 10 µM; further: reference of the scale not given here
The source made the active and inactive calls.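 How the source made its calls: active means compound raises GLP1 secretion from the human gut endocrine cells, with no numeric limit stated; inactive means the rest.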
Outcomes: class 1 = active, class 0 = inactive

>>> assigned_label("C[C@]12CC[C@@H]3c4ccc(OC(=O)N(CCCl)CCCl)cc4CC[C@H]3[C@@H]1CC[C@@H]2O")
"class 0"
>>> assigned_label("O=C(CCCCl)c1ccc(F)cc1")
"class 0"
>>> assigned_label("CCC1(c2ccc(N)cc2)CCC(=O)NC1=O (centres undefined)")
"class 0"
>>> assigned_label("O=C(NCNC(=O)NC1C(=O)NC(=O)N1CO)NC1C(=O)NC(=O)N1CO (centres undefined)")
"class 0"
>>> assigned_label("CC[n+]1c(-c2ccccc2)c2cc(N)ccc2c2ccc(N)cc21")
"class 0"
>>> assigned_label("CC(Cc1ccc(O)cc1)NCC(O)c1cc(O)cc(O)c1 (centres undefined)")
"class 0"
>>> assigned_label("Nc1ccc(N)cc1")
"class 0"
>>> assigned_label("O=C(N/N=C/c1ccc([N+](=O)[O-])o1)c1cc([N+](=O)[O-])cc([N+](=O)[O-])c1O")
"class 0"
>>> assigned_label("NCC(O)c1cccc(O)c1 (centres undefined)")
"class 0"
>>> assigned_label("CCc1ccc(C2CCNCC2)cc1")
"class 0"
>>> assigned_label("CCCC(C)(COC(N)=O)COC(=O)NC(C)C (centres undefined)")
"class 0"
>>> assigned_label("COC(=O)[C@@H](N)CCCN/C(N)=N/[N+](=O)[O-]")
"class 0"
>>> assigned_label("Clc1ccc(CCC(Cn2ccnc2)Sc2c(Cl)cccc2Cl)cc1 (centres undefined)")
"class 1"
>>> assigned_label("O=c1[nH]c2ccccc2n1CCCN1CCC(n2c(=O)[nH]c3cc(Cl)ccc32)CC1")
"class 0"
>>> assigned_label("CCOC(=O)c1ccccc1C(=O)OCC")
"class 0"
>>> assigned_label("O=S(=O)(O)c1cc(O)ccc1O")
"class 0"
>>> assigned_label("Clc1ccc(CSC(Cn2ccnc2)c2ccc(Cl)cc2Cl)cc1 (centres undefined)")
"class 1"
>>> assigned_label("C[C@@H]1CN(C2CCC(C#N)(c3ccc(F)cc3)CC2)CC[C@]1(C(=O)O)c1ccccc1 (some centres undefined)")
"class 0"
>>> assigned_label("COP(=S)(OC)Oc1ccc(SC)c(C)c1")
"class 0"
>>> assigned_label("CCN(CC)C(=O)N[C@@H]1C=C2c3cccc4[nH]cc(c34)C[C@@H]2N(C)C1")
"class 0"
>>> assigned_label("CCO[C@H]1O[C@@H]2OC3(C)CC[C@H]4[C@H](C)CC[C@@H]([C@H]1C)[C@@]24OO3")
"class 0"
>>> assigned_label("c1ccc2c(c1)sc1ccccc12")
"class 0"
>>> assigned_label("COc1ccc(Cc2nccc3cc(OC)c(OC)cc23)cc1OC")
"class 0"
>>> assigned_label("CCCCNC(C)(C)[P+](=O)O")
"class 0"

Source of measurements: PubChem BioAssay
